Tested on: A549 lung adenocarcinoma cells
Experiment: MTT assay, inhibition of cancer cell growth, A549
Conditions: read-out: 50% inhibitory concentration A549, exposure time 96 h
pIC50: −log10 of the molar value.
Each entry below carries its reported pIC50.
attribute_measured: pIC50

Cc1ccc(C(C)C)cc1.Cn1cc[n+]([Os-]2[c]3ccccc3-c3csc[n+]32)c1.O=[N+]([O-])[O-]: 4.92
Cc1ccc(C(C)C)cc1.Cc1ccc2[c](c1)[Os-]([n+]1ccn(C)c1)[n+]1cscc1-2.O=[N+]([O-])O: 5.15
Cc1ccc(C(C)C)cc1.Cc1ccc2[c](c1)[Ru-]([n+]1ccn(C)c1)[n+]1cscc1-2.O=[N+]([O-])[O-]: 5.14
Cc1ccc(C(C)C)cc1.Cn1cc[n+]([Os-]2[c]3cc(F)ccc3-c3csc[n+]32)c1.O=[N+]([O-])O: 4.70
